tested on: MDR; assay: Permeability from apical to basolateral side of MDCK cells over expressing MDR; conditions: dog, MDCK-MDR1
EXPERIMENTAL_READOUT: Papp (apical to basal) (×10⁻⁶ cm/s)
Only the number, expressed in ×10⁻⁶ cm/s, is required.

Q) Requested read-out: Papp (apical to basal). Entry: `Cc1cc(-c2cc(-c3ccccc3)nc(=O)[nH]2)ccc1O`
A) 13.9

###

Overview of recorded Kp at 1 h for various compounds
test: Ratio of drug level in brain to plasma in Sprague-Dawley rat at 5 mg/kg, sc after 1 hr; assay type: ADME, organism-based; set-up: dose 5 mg/kg, route subcutaneous; conditions: brain and plasma, read-out: BPR
Keep it simple and answer with nothing but the number.

Below: 2 compounds and their reported Kp at 1 h.
- STRUCTURE_SMILES: "Cn1c(N2CCC(O)(c3ccccc3)CC2)cc(-c2ccncn2)cc1=O"
  OBSERVED: 0.96
- STRUCTURE_SMILES: "COc1ccccc1[C@H]1CN(c2cc(-c3ccncn3)cc(=O)n2C)CCO1"
  OBSERVED: 1.86

Q) Requested read-out: Kp at 1 h. Entry: `COc1ccccc1CCNc1cc(-c2ccncn2)cc(=O)n1C`
A) 0.35
